details: bacteroides eggerthii, 12 h, 2 µM;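 further: compound levels quantified by LC–MS at the start and end of incubation with the bacterium, indicating biotransformation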
Description: The drug is tested on Bacteroides eggerthii strain: DSM20697 for biotransformation. The drug concentrations were measured before and after a 12-h incubation by liquid-chromatography-coupled mass spectrometry (LC–MS)
quantityMeasured: Bacterial Biotransformation

Please review the entries below; each comes with its answer.
[
  {
    "compound": "CCN(CC)C(C)CN1c2ccccc2Sc2ccccc21 (stereo not given)",
    "Bacterial Biotransformation": "Compound NOT metabolized"
  },
  {
    "compound": "CC1=C(CC(=O)O)c2cc(F)ccc2/C1=C\\c1ccc([S+](C)[O-])cc1 (stereo not given)",
    "Bacterial Biotransformation": "Compound NOT metabolized"
  },
  {
    "compound": "CC(C)(C#N)c1cc(Cn2cncn2)cc(C(C)(C)C#N)c1",
    "Bacterial Biotransformation": "Compound metabolized"
  },
  {
    "compound": "OC(c1cc(C(F)(F)F)nc2c(C(F)(F)F)cccc12)C1CCCCN1 (stereo not given)",
    "Bacterial Biotransformation": "Compound NOT metabolized"
  },
  {
    "compound": "CCC(C)n1ncn(-c2ccc(N3CCN(c4ccc(OCC5COC(Cn6cncn6)(c6ccc(Cl)cc6Cl)O5)cc4)CC3)cc2)c1=O (stereo not given)",
    "Bacterial Biotransformation": "Compound NOT metabolized"
  },
  {
    "compound": "CC(C)(C)NC[C@H](O)COc1nsnc1N1CCOCC1.O=C(O)/C=C\\C(=O)O [TIMOLOL MALEATE]",
    "Bacterial Biotransformation": "Compound NOT metabolized"
  }
]

## Input Reported Bacterial Biotransformation, compound O=C(O)COCCN1CCN(C(c2ccccc2)c2ccc(Cl)cc2)CC1 (stereo not given) : ____
## Output Compound metabolized

## Input Can you look up the measured Bacterial Biotransformation of CCS(=O)(=O)CCn1c([N+](=O)[O-])cnc1C for me?
## Output Compound metabolized

## Input Quick one: Bacterial Biotransformation for Cc1nc(Nc2ncc(C(=O)Nc3c(C)cccc3Cl)s2)cc(N2CCN(CCO)CC2)n1.O ?
## Output Compound NOT metabolized

## Input Please report the recorded Bacterial Biotransformation for O=C(O[C@H]1C[C@H]2CC[C@@H](C1)[N+]21CCCC1)C(O)(c1ccccc1)c1ccccc1.[Cl-] [TROSPIUM CHLORIDE] .
## Output Compound NOT metabolized
